# LD50 per record follows
# Protocol Notes: in vivo
# Condition Label: mouse, po
Could you give me the number in mg/kg? Just the number is fine.

# example entries with known answers
CCOC(=O)C1=C(C)NC(CSCCNCCC#N)=C(C(=O)OCC)C1c1cccc([N+](=O)[O-])c1 (stereo not shown) [Compound 19]
95
CCOC(=O)C1=C(CSCCN)NC(C)=C(C(=O)OC)C1c1cccc(Cl)c1 (stereo not shown) [Compound 7]
40
CCOC(=O)C1=C(CSCC(N)CO)NC(C)=C(C(=O)OC)C1c1cccc([N+](=O)[O-])c1 (stereo not shown) [Compound 31]
371

Note: attention shifts to another entry.
Kindly note the recorded LD50 for CCOC(=O)C1=C(CSCCN)NC(C)=C(C(=O)OC(C)C)C1c1cccc([N+](=O)[O-])c1 (stereo not shown) [Compound 24] , which is 53
